Study system: GABA-A receptor; alpha-3/beta-3/gamma-2 (Homo sapiens, UniProt P18507+P28472+P34903)
Sequence (P18507 whole entry): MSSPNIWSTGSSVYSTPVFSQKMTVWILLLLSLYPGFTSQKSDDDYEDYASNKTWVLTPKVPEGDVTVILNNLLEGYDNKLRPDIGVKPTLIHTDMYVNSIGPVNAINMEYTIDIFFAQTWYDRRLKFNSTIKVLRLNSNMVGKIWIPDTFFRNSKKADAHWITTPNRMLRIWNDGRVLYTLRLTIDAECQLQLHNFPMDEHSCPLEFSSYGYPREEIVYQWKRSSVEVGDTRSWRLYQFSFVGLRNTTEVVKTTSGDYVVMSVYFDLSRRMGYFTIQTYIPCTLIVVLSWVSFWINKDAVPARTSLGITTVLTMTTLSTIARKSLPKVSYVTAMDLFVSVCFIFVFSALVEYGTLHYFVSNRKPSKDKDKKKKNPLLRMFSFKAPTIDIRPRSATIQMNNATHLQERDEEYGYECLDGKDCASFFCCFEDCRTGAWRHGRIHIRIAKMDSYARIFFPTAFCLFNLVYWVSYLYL
Sequence (P28472 whole entry): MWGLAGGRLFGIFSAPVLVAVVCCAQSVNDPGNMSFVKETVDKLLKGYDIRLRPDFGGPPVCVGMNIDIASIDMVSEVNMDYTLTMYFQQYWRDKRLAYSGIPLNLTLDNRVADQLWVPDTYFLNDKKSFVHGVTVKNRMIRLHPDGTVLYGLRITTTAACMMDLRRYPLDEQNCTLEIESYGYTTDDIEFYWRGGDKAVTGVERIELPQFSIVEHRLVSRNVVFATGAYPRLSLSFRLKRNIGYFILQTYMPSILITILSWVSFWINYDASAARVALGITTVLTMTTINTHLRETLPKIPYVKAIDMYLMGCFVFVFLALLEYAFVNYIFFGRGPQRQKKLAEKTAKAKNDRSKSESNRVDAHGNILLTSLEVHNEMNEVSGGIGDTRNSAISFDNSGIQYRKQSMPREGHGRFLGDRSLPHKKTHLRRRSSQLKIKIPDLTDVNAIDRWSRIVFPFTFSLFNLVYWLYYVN
Sequence (P34903 whole entry): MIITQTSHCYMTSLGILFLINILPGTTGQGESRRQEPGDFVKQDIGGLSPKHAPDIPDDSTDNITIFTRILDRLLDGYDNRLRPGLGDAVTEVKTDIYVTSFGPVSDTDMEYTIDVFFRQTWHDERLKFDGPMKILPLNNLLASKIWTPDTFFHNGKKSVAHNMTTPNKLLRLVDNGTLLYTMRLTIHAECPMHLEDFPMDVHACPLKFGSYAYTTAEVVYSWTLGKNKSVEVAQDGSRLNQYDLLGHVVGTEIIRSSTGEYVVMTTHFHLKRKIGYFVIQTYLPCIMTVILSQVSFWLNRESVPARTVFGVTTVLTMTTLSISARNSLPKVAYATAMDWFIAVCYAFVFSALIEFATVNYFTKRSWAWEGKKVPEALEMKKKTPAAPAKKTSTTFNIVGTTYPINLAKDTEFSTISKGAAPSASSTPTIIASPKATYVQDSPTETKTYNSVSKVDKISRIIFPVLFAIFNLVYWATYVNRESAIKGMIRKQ
Protocol details: Binding affinity at human recombinant gamma-aminobutyric-acid A receptor alpha-3-beta-3-gamma-2 expressed in L(tk) cells by [3H]Ro-151788 displacement.
Recorded metric: log10 Ki (log10 of the value in nM)
Short version: log10 scale, Ki, nM.

Give me log10 Ki for each of these molecules, listed below.
1. Cc1csc(-c2cc(-c3ccccc3)c3n(c2=O)CCCc2ccncc2-3)n1
2. Cc1csc(-c2cc(-c3ccc[nH]3)c3n(c2=O)CCCc2ccncc2-3)n1
3. Cc1csc(-c2cc(-c3ccn(C)n3)c3n(c2=O)CCCc2ccncc2-3)n1
4. Cc1csc(-c2cc(-c3ccncc3)c3n(c2=O)CCCc2ccncc2-3)n1

*A*
-0.40
0.62
1.30
-0.30
